- PROCEDURE_DETAILS: activity coefficient (dimensionless); of the first substance listed, at infinite dilution; xn = mol fraction of the nth substance listed
- COND: 323.15 K; 101 kPa; Liquid; Chromatography; x1 = 0
The threshold is inclusive: activity coefficient of exactly 0.4 counts as y; values below receive n.

{"columns": ["COMPOUND", "LABEL_CLASS"],
 "data": [
  ["CC(C)OC(C)C [diisopropyl ether] + CC1(C)[C@@H]2CC[C@@]1(CS(=O)(=O)[O-])C(=O)C2.CCCCCCCCCCCCCC[N+](CCCCCC)(CCCCCC)CCCCCC", "y"],
  ["C1CCCCC1 [cyclohexane] + CCCCCCCCCCCCCC[N+](CCCCCC)(CCCCCC)CCCCCC.C[C@H](O)C(=O)[O-]", "y"],
  ["CCO [ethanol] + CC1(C)[C@@H]2CC[C@@]1(CS(=O)(=O)[O-])C(=O)C2.CCCCCCCCCCCCCC[N+](CCCCCC)(CCCCCC)CCCCCC", "n"],
  ["C1CCCCC1 [cyclohexane] + CC1(C)[C@@H]2CC[C@@]1(CS(=O)(=O)[O-])C(=O)C2.CCCCCCCCCCCCCC[N+](CCCCCC)(CCCCCC)CCCCCC", "y"],
  ["ClCCl [dichloromethane] + CCCCCCCCCCCCCC[N+](CCCCCC)(CCCCCC)CCCCCC.C[C@H](O)C(=O)[O-]", "n"],
  ["CCc1ccccc1 [ethylbenzene] + CC1(C)[C@@H]2CC[C@@]1(CS(=O)(=O)[O-])C(=O)C2.CCCCCCCCCCCCCC[N+](CCCCCC)(CCCCCC)CCCCCC", "y"],
  ["Cc1ccccc1 [toluene] + CCCCCCCCCCCCCC[N+](CCCCCC)(CCCCCC)CCCCCC.C[C@H](O)C(=O)[O-]", "y"],
  ["c1ccsc1 [thiophene] + CCCCCCCCCCCCCC[N+](CCCCCC)(CCCCCC)CCCCCC.C[C@H](O)C(=O)[O-]", "n"],
  ["Cc1ccccc1C [1,2-dimethylbenzene] + CCCCCCCCCCCCCC[N+](CCCCCC)(CCCCCC)CCCCCC.C[C@H](O)C(=O)[O-]", "y"],
  ["CCO [ethanol] + CCCCCCCCCCCCCC[N+](CCCCCC)(CCCCCC)CCCCCC.C[C@H](O)C(=O)[O-]", "n"],
  ["CCCCCCCCCCC [undecane] + CC1(C)[C@@H]2CC[C@@]1(CS(=O)(=O)[O-])C(=O)C2.CCCCCCCCCCCCCC[N+](CCCCCC)(CCCCCC)CCCCCC", "y"],
  ["Cc1cccc(C)c1 [1,3-dimethylbenzene] + CC1(C)[C@@H]2CC[C@@]1(CS(=O)(=O)[O-])C(=O)C2.CCCCCCCCCCCCCC[N+](CCCCCC)(CCCCCC)CCCCCC", "y"],
  ["CCCC(C)=O [pentan-2-one] + CC1(C)[C@@H]2CC[C@@]1(CS(=O)(=O)[O-])C(=O)C2.CCCCCCCCCCCCCC[N+](CCCCCC)(CCCCCC)CCCCCC", "y"],
  ["CCc1ccccc1 [ethylbenzene] + CCCCCCCCCCCCCC[N+](CCCCCC)(CCCCCC)CCCCCC.C[C@H](O)C(=O)[O-]", "y"],
  ["CCN(CC)CC [triethylamine] + CC1(C)[C@@H]2CC[C@@]1(CS(=O)(=O)[O-])C(=O)C2.CCCCCCCCCCCCCC[N+](CCCCCC)(CCCCCC)CCCCCC", "y"],
  ["C#CCCCCC [1-heptyne] + CC1(C)[C@@H]2CC[C@@]1(CS(=O)(=O)[O-])C(=O)C2.CCCCCCCCCCCCCC[N+](CCCCCC)(CCCCCC)CCCCCC", "y"],
  ["CC(C)CC(C)(C)C [2,2,4-trimethylpentane] + CCCCCCCCCCCCCC[N+](CCCCCC)(CCCCCC)CCCCCC.C[C@H](O)C(=O)[O-]", "y"],
  ["CCCCCCCCCC [decane] + CC1(C)[C@@H]2CC[C@@]1(CS(=O)(=O)[O-])C(=O)C2.CCCCCCCCCCCCCC[N+](CCCCCC)(CCCCCC)CCCCCC", "y"],
  ["CC1CCCC1 [methylcyclopentane] + CCCCCCCCCCCCCC[N+](CCCCCC)(CCCCCC)CCCCCC.C[C@H](O)C(=O)[O-]", "y"],
  ["CC#N [acetonitrile] + CCCCCCCCCCCCCC[N+](CCCCCC)(CCCCCC)CCCCCC.C[C@H](O)C(=O)[O-]", "y"],
  ["c1ccccc1 [benzene] + CC1(C)[C@@H]2CC[C@@]1(CS(=O)(=O)[O-])C(=O)C2.CCCCCCCCCCCCCC[N+](CCCCCC)(CCCCCC)CCCCCC", "n"],
  ["c1ccncc1 [pyridine] + CCCCCCCCCCCCCC[N+](CCCCCC)(CCCCCC)CCCCCC.C[C@H](O)C(=O)[O-]", "n"],
  ["CCC[N+](=O)[O-] [1-nitropropane] + CCCCCCCCCCCCCC[N+](CCCCCC)(CCCCCC)CCCCCC.C[C@H](O)C(=O)[O-]", "n"],
  ["CCC(C)=O [butanone] + CC1(C)[C@@H]2CC[C@@]1(CS(=O)(=O)[O-])C(=O)C2.CCCCCCCCCCCCCC[N+](CCCCCC)(CCCCCC)CCCCCC", "y"],
  ["C[N+](=O)[O-] [nitromethane] + CCCCCCCCCCCCCC[N+](CCCCCC)(CCCCCC)CCCCCC.C[C@H](O)C(=O)[O-]", "n"]
]}

====

- PROCEDURE_DETAILS: activity coefficient (dimensionless); of the first substance listed, at infinite dilution; xn = mol fraction of the nth substance listed
- COND: 323.15 K; 101 kPa; Liquid; Chromatography; x1 = 0
# label = TRUE if activity coefficient < 0.8 else FALSE

{"columns": ["MOLECULE", "LABEL_CLASS"],
 "data": [
  ["CC1CCCC1 [methylcyclopentane] + CC1(C)[C@@H]2CC[C@@]1(CS(=O)(=O)[O-])C(=O)C2.CCCCCCCCCCCCCC[N+](CCCCCC)(CCCCCC)CCCCCC", "TRUE"],
  ["CO [methanol] + CCCCCCCCCCCCCC[N+](CCCCCC)(CCCCCC)CCCCCC.C[C@H](O)C(=O)[O-]", "TRUE"],
  ["CC(C)OC(C)C [diisopropyl ether] + CCCCCCCCCCCCCC[N+](CCCCCC)(CCCCCC)CCCCCC.C[C@H](O)C(=O)[O-]", "FALSE"],
  ["C=CCCCC [hex-1-ene] + CCCCCCCCCCCCCC[N+](CCCCCC)(CCCCCC)CCCCCC.C[C@H](O)C(=O)[O-]", "FALSE"],
  ["ClCCl [dichloromethane] + CC1(C)[C@@H]2CC[C@@]1(CS(=O)(=O)[O-])C(=O)C2.CCCCCCCCCCCCCC[N+](CCCCCC)(CCCCCC)CCCCCC", "TRUE"],
  ["CC1CCCCC1 [methylcyclohexane] + CC1(C)[C@@H]2CC[C@@]1(CS(=O)(=O)[O-])C(=O)C2.CCCCCCCCCCCCCC[N+](CCCCCC)(CCCCCC)CCCCCC", "TRUE"],
  ["CCCCCC [hexane] + CC1(C)[C@@H]2CC[C@@]1(CS(=O)(=O)[O-])C(=O)C2.CCCCCCCCCCCCCC[N+](CCCCCC)(CCCCCC)CCCCCC", "FALSE"],
  ["ClC(Cl)(Cl)Cl [tetrachloromethane] + CC1(C)[C@@H]2CC[C@@]1(CS(=O)(=O)[O-])C(=O)C2.CCCCCCCCCCCCCC[N+](CCCCCC)(CCCCCC)CCCCCC", "TRUE"],
  ["CCCCCCCCCCCC [dodecane] + CC1(C)[C@@H]2CC[C@@]1(CS(=O)(=O)[O-])C(=O)C2.CCCCCCCCCCCCCC[N+](CCCCCC)(CCCCCC)CCCCCC", "FALSE"],
  ["c1ccccc1 [benzene] + CCCCCCCCCCCCCC[N+](CCCCCC)(CCCCCC)CCCCCC.C[C@H](O)C(=O)[O-]", "TRUE"],
  ["CC(C)O [propan-2-ol] + CC1(C)[C@@H]2CC[C@@]1(CS(=O)(=O)[O-])C(=O)C2.CCCCCCCCCCCCCC[N+](CCCCCC)(CCCCCC)CCCCCC", "TRUE"],
  ["CCCCCCC [heptane] + CC1(C)[C@@H]2CC[C@@]1(CS(=O)(=O)[O-])C(=O)C2.CCCCCCCCCCCCCC[N+](CCCCCC)(CCCCCC)CCCCCC", "FALSE"]
]}

====

- PROCEDURE_DETAILS: activity coefficient (dimensionless); of the first substance listed, at infinite dilution; xn = mol fraction of the nth substance listed
- COND: 343.15 K; 101 kPa; Liquid; Chromatography; x1 = 0
The threshold is inclusive: activity coefficient of exactly 0.9 counts as yes; values below receive no.

{"columns": ["MOLECULE", "LABEL_CLASS"],
 "data": [
  ["Cc1cccc(C)c1 [1,3-dimethylbenzene] + CC1(C)[C@@H]2CC[C@@]1(CS(=O)(=O)[O-])C(=O)C2.CCCCCCCCCCCCCC[N+](CCCCCC)(CCCCCC)CCCCCC", "yes"],
  ["CCCCO [butan-1-ol] + CC1(C)[C@@H]2CC[C@@]1(CS(=O)(=O)[O-])C(=O)C2.CCCCCCCCCCCCCC[N+](CCCCCC)(CCCCCC)CCCCCC", "no"],
  ["CCC(C)=O [butanone] + CC1(C)[C@@H]2CC[C@@]1(CS(=O)(=O)[O-])C(=O)C2.CCCCCCCCCCCCCC[N+](CCCCCC)(CCCCCC)CCCCCC", "no"],
  ["CCCCCCCC [octane] + CC1(C)[C@@H]2CC[C@@]1(CS(=O)(=O)[O-])C(=O)C2.CCCCCCCCCCCCCC[N+](CCCCCC)(CCCCCC)CCCCCC", "yes"],
  ["C#CCCCC [1-hexyne] + CC1(C)[C@@H]2CC[C@@]1(CS(=O)(=O)[O-])C(=O)C2.CCCCCCCCCCCCCC[N+](CCCCCC)(CCCCCC)CCCCCC", "yes"],
  ["CCCCCCCCCCC [undecane] + CC1(C)[C@@H]2CC[C@@]1(CS(=O)(=O)[O-])C(=O)C2.CCCCCCCCCCCCCC[N+](CCCCCC)(CCCCCC)CCCCCC", "yes"]
]}
